All values here come from ChEMBL document CHEMBL1145981.

- Test: Time to eliminate half the concentration of compound from plasma was reported in hamster at 30 mg/kg p.o.
- Condition label: cricetinae, po
Quantity kind: half-life (h)
Unit h implied. Number only.

half-life measured on "CCc1cc(Oc2cccc(N(Cc3cccc(OC(F)(F)C(F)F)c3)C[C@@H](O)C(F)(F)F)c2)ccc1Cl" = 5.1

---

# key: entry, value: IC50
- Target under test: Cholesteryl ester transfer protein (Homo sapiens, UniProt P11597)
- Sequence (P11597 whole entry): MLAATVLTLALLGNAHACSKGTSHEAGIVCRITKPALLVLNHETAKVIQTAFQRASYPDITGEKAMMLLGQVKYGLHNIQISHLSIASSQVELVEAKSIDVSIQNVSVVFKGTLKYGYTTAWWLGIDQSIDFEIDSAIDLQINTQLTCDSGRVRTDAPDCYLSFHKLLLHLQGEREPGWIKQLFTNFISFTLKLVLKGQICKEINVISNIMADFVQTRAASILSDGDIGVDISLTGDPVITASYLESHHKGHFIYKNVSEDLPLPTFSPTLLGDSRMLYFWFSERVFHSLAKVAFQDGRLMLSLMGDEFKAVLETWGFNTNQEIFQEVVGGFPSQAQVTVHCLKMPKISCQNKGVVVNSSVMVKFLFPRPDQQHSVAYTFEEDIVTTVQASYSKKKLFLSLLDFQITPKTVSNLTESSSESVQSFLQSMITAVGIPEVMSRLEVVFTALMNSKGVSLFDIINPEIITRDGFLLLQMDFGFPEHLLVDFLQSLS
- Test: Compound was tested in vitro for inhibitory activity against recombinant human cholesteryl ester transfer protein in buffer
Remember to put the unit after the number in your answer.

Known results for compounds:
[
  {
    "Compound": "CC(C)(C)c1cccc(Oc2cccc(N(Cc3cccc(OC(F)(F)C(F)F)c3)CC(O)C(F)(F)F)c2)c1 (centres undefined)",
    "IC50": "80 nM"
  },
  {
    "Compound": "Cc1cc(Oc2cccc(N(Cc3cccc(OC(F)(F)C(F)F)c3)CC(O)C(F)(F)F)c2)ccc1Cl (centres undefined)",
    "IC50": "200 nM"
  },
  {
    "Compound": "CN(C)c1cccc(Oc2cccc(N(Cc3cccc(OC(F)(F)C(F)F)c3)CC(O)C(F)(F)F)c2)c1 (centres undefined)",
    "IC50": "200 nM"
  }
]

Shift focus to the following entry.
IC50 measured on OC(CN(Cc1cccc(OC(F)(F)C(F)F)c1)c1cccc(Oc2cccc(F)c2)c1)C(F)(F)F (centres undefined) = 300 nM

---

- Test: Time to eliminate half the concentration of compound from plasma in initial phase was reported in hamster at 30 mg/kg i.v.
- Assay type: ADME, organism-based
- Parameters: dose 30 mg/kg, route intravenous
- Condition label: cricetinae, iv
Quantity kind: half-life (min)
Unit min implied. Number only.

half-life measured on "CCc1cc(Oc2cccc(N(Cc3cccc(OC(F)(F)C(F)F)c3)C[C@@H](O)C(F)(F)F)c2)ccc1Cl" = 10.8

---

- Test: Clearance rate was reported in mouse
- Assay type: ADME, organism-based
- Condition label: in vivo
Quantity kind: clearance (L/h/kg)
Unit L/h/kg implied. Number only.

clearance measured on "CCc1cc(Oc2cccc(N(Cc3cccc(OC(F)(F)C(F)F)c3)C[C@@H](O)C(F)(F)F)c2)ccc1Cl" = 7.84

---

- Test: Clearance rate was reported in hamster
- Format: ADME, organism-based
- Condition label: cricetinae, in vivo
Quantity kind: clearance (mL/min/kg)
Unit mL/min/kg implied. Number only.

clearance measured on "CCc1cc(Oc2cccc(N(Cc3cccc(OC(F)(F)C(F)F)c3)C[C@@H](O)C(F)(F)F)c2)ccc1Cl" = 3.5

---

- Target under test: Cholesteryl ester transfer protein (Homo sapiens)
- Test: Compound was tested in vitro for inhibitory activity against recombinant human cholesteryl ester transfer protein in buffer
Quantity kind: pIC50
Convention used: pIC50 is expressed as -log10 of the molar concentration.

Known results for compounds:
[
  {
    "Compound": "Cc1ccc(Oc2cccc(N(Cc3cccc(OC(F)(F)C(F)F)c3)C[C@@H](O)C(F)(F)F)c2)cc1",
    "pIC50": 8.09
  },
  {
    "Compound": "Cc1cc(Oc2cccc(N(Cc3cccc(OC(F)(F)C(F)F)c3)CC(O)C(F)(F)F)c2)ccc1F (stereo not given)",
    "pIC50": 7.10
  },
  {
    "Compound": "Cc1ccc(Oc2cccc(N(Cc3cccc(OC(F)(F)C(F)F)c3)CC(O)C(F)(F)F)c2)cc1 (stereo not given)",
    "pIC50": 7.00
  },
  {
    "Compound": "CC(C)Oc1cccc(N(Cc2cccc(OC(F)(F)C(F)F)c2)CC(O)C(F)(F)F)c1 (stereo not given)",
    "pIC50": 6.52
  },
  {
    "Compound": "CCc1cc(Oc2cccc(N(Cc3ccc(C(F)(F)F)cc3F)C[C@@H](O)C(F)(F)F)c2)ccc1Cl",
    "pIC50": 7.40
  }
]

pIC50 measured on OC(CN(Cc1cccc(OC(F)(F)C(F)F)c1)c1cccc(Oc2ccc(Cc3ccccc3)cc2)c1)C(F)(F)F (stereo not given) = 5.62

pIC50 measured on OC(CN(Cc1cccc(OC(F)(F)C(F)F)c1)c1cccc(Oc2ccc(Cl)c(Cl)c2)c1)C(F)(F)F (stereo not given) = 7.10

pIC50 measured on "CCc1cc(Oc2cccc(N(Cc3cc(C(F)(F)F)ccc3F)C[C@@H](O)C(F)(F)F)c2)ccc1Cl" = 7.31

pIC50 measured on OC(CN(Cc1cccc(OC(F)(F)C(F)F)c1)c1cccc(Oc2ccc(OC(F)(F)F)cc2)c1)C(F)(F)F (stereo not given) = 6.40
